Biological target: T1, human MMP2 (pro-MMP2 activated with APMA) (human, UniProt P08253 30-660)
T1 sequence (looked up): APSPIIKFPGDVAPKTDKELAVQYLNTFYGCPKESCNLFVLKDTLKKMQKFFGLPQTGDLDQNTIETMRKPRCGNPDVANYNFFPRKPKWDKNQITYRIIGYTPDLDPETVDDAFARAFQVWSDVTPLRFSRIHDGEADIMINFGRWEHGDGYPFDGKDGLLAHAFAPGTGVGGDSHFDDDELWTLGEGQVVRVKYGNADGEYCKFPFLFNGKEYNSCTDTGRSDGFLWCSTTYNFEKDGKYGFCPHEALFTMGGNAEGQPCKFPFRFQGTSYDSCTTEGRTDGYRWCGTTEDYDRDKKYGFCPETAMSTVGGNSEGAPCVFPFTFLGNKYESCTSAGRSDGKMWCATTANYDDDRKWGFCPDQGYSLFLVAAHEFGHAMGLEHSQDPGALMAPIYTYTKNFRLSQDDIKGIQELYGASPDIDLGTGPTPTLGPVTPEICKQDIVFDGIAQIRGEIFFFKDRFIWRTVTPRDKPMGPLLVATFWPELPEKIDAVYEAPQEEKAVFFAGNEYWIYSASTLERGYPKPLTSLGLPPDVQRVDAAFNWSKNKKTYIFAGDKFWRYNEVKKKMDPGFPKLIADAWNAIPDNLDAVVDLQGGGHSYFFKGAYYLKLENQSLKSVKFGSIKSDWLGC
Test: cell-based or functional assay
Measurement name: MMP2 Inhibition Shift (fold)

| Binder | Measurement name | Quantitative readout |
| --- | --- | --- |
| TIMP-3 mutein K45E, K49E, F57N, K94N, E96T, D110N, K112T, G173T, R186N, K188T (other) CTCSPSHPQDAFCNSDIVIRAEVVGEKLVKEGPNGTLVYTIKQMKMYRGFTKMPHVQYIHTEASESLCGLNLTVNKYQYLLTGRVYNGTMYTGLCNFVERWDQLTLSQRKGLNYRYHLGCNCKIKSCYYLPCFVTSKNECLWTDMLSNFTYPGYQSKHYACINQTGGYCSWYRGWAPPDKSIINATDP | MMP2 Inhibition Shift | 1 |
| TIMP-3 mutein K45S, F57N, T63N, K65T, K94N, E96T, G173T (other) CTCSPSHPQDAFCNSDIVIRASVVGKKLVKEGPNGTLVYNITQMKMYRGFTKMPHVQYIHTEASESLCGLNLTVNKYQYLLTGRVYDGKMYTGLCNFVERWDQLTLSQRKGLNYRYHLGCNCKIKSCYYLPCFVTSKNECLWTDMLSNFTYPGYQSKHYACIRQKGGYCSWYRGWAPPDKSIINATDP | MMP2 Inhibition Shift | 2 |
